# Tested on: HS 578T breast
# method_summary: NCI-60 one-dose screen, 48 h (100 = growth as untreated, 0 = no growth, -100 = all killed)
# run_parameters: 10 µM unless noted
About 83,000 compounds went through this panel and 20% of them were active in at least one assay; those are over-represented in the sample as a whole.
Let's look at some compounds and their measured growth.
Quick reminder: number only, in %, skip the unit.

C=C(C)[C@@H]1CC[C@]2(C(=O)NCC(=O)OC)CC[C@]3(C)[C@H](CC[C@@H]4[C@@]5(C)Cc6c([nH]c7ccccc67)C(C)(C)[C@@H]5CC[C@]43C)[C@@H]12 = 95
O=C(O)c1cn(C2CC2)c2cc(N3CCN(C(=O)C[n+]4cccc5ccccc54)CC3)c(F)cc2c1=O = 84.9
CCCCCN1C=C/C(=C\C(=O)N(C)c2ccc(Br)cc2)c2ccccc21 = 98.6

Exercise: Fill in: growth of O=C(Nc1ccc(Cl)cc1)Nc1ccc(Cl)c(Cl)c1 is ___
Key: 33

Exercise: Fill in: growth of COc1ccc(Nn2c(SCC(=O)Nc3nc(-c4ccc(Cl)cc4)cs3)nc(C)c2C)cc1 is ___
Key: 86.1

Exercise: Fill in: growth of CN1CCN(c2c(F)cc(NC3=C(Cl)C(=O)c4ncccc4C3=O)cc2F)CC1 is ___
Key: 97.2

Exercise: Fill in: growth of CN1CCCC1=Nc1ccccc1 is ___
Key: 106

Exercise: Fill in: growth of COc1c(Cl)cc(Cl)c2ccc(C=C3C(=O)NC(=S)NC3=O)nc12 is ___
Key: 102

Exercise: Fill in: growth of COc1cc(NCC(O)CN(CC(C)C)CC(C)C)c2nc(C)ccc2c1 (stereo not drawn) is ___
Key: 85.1

Exercise: Fill in: growth of CC1(C)CN(Cc2ccccc2)CCN1Cc1ccccc1 is ___
Key: 99.1

Exercise: Fill in: growth of COc1cc(/C=C2\C(=O)N(Cc3ccc(Cl)cc3)c3ccccc32)cc(OC)c1OC is ___
Key: -14.3

Exercise: Fill in: growth of CC(=O)OCC(=O)[C@@]1(O)CC[C@H]2[C@@H]3CC(=C(Br)Br)C4=CC(=O)CC[C@]4(C)[C@H]3C(=O)C[C@@]21C is ___
Key: 90.8

Exercise: Fill in: growth of O=C1c2ccccc2C(=O)c2c(NCCN=Cc3ccccc3O)cccc21 is ___
Key: 43.4

Exercise: Fill in: growth of CCNC(=O)c1[nH]cc(-c2ccc(OC)cc2)c1-c1cc(OC)c(OC)c(OC)c1 is ___
Key: 45.3

Exercise: Fill in: growth of Clc1cc(Cl)cc(N2N=C(c3cccc(Nc4ccncc4)c3)CC2c2ccc3c(c2)OCO3)c1 (stereo not drawn) is ___
Key: 50.6

Exercise: Fill in: growth of Clc1ccc(N2N=C(c3cccc(Nc4ccncc4)c3)CC2c2ccc3c(c2)OCO3)cc1 (stereo not drawn) is ___
Key: 68.9

Exercise: Fill in: growth of COC(=O)CCCCCCCCC1(C)C=CC(C(C)O)=CC1 (stereo not drawn) is ___
Key: 117

Exercise: Fill in: growth of COc1ccc(CC(C)=C(c2ccc(OCCN(C)C)cc2)c2ccc(OCCN(C)C)cc2)cc1 is ___
Key: 74.6

Exercise: Fill in: growth of Cc1nc2sc(C(=O)Nc3ccccc3)c(N)c2cc1C(=O)c1ccc(C(F)(F)F)cc1 is ___
Key: 85.6

Exercise: Fill in: growth of CCCC/C(=N\N=C(N)N)c1ccc(F)cc1 is ___
Key: 26.1

Exercise: Fill in: growth of Cc1cc(Nc2cccc(C(F)(F)F)c2)n2c(nc3ccccc32)c1C#N is ___
Key: 68.5

Where do these numbers come from? They come from PubChem BioAssay (NCI).
